- Test Protocol: S. cerevisiae growth modulation with rapamycin, primary screen, strain BY4716, OD600, 96 h (AID 1091); further: test concentration not given here
- Study Conditions: higher = more signal, called active from +8 up or from −8 down
Each record gets a class by z-score: bottom range: < -0.5; center range: ≥ -0.5 and < 0.7; top range: ≥ 0.7

Record excerpt, results attached:
compound=COC(=O)[C@@]1(Cc2ccccc2)[C@@H]2[C@@H](CC(=O)[C@H]2CC(=O)C(=O)N(C)C)CN1C(=O)c1ccccc1 group_label="center range"
compound="CC(C)C[C@H]1NC(=O)[C@@H](C)NC(=O)[C@@]23C(=O)N[C@@H](Cc4ccccc4)C2[C@H](C)[C@@]2(C)O[C@H]2C3/C=C/C/C=C\\CNC1=O (stereo partly specified)" group_label="bottom range"
compound=CCOC(=O)C[C@H]1[C@H](OC(=O)c2cc3ccccc3oc2=O)[C@@H](NC(=O)C2CCCCC2)c2cc(OCCCO)ccc2N1C(=O)Cc1ccc(OC)cc1 group_label="center range"
compound="CCN(CC)c1ccc(N2CC=CC34O[C@@H]5C=CCOC(=O)[C@@H]5[C@H]3C(=O)N(CCCO)[C@@H]4C2=O)cc1 (stereo partly specified)" group_label="center range"

Band assignment needed for CC1CC/C=C\[C@H]2OC34C=CCN(c5ccc(Cl)cc5)C(=O)[C@H]3N(CCCO)C(=O)[C@]4(C)C2C(=O)O1 (stereo partly specified) please.
top range

Determine which band this compound sits in: CC(C)CNC(=O)[C@@H]1c2ccccc2C(=O)N(Cc2ccccc2Cl)[C@H]1c1ccc(CO)cc1
center range

Band for CCOC(=O)C[C@H]1[C@H](OC(=O)Cc2ccc3c(c2)OCO3)[C@@H](NC(=O)c2ccccc2)c2cc(OCCCO)ccc2N1C(=O)Cc1ccc(OC)cc1 ?
bottom range

State the band of CC(=O)c1ccc(C(O)C2C=CC3C(=O)N(C)C(=O)C3N2NC(=O)OC(C)(C)C)cc1 (stereo unspecified)
top range

State the band of CCCCCN1CC=CC23O[C@@H]4C=CCOC(=O)[C@@H]4[C@H]2C(=O)N(CCCCCO)[C@@H]3C1=O (stereo partly specified)
bottom range

Please let me know in which category the item CN(C)CCCC[C@@H]1NC(=O)[C@H]2C[C@@H](C(=O)NCc3ccc(F)cc3)[C@@H](c3ccc(O)cc3)N2C1=O belongs.
center range

Category of Cc1c(NC(=O)/C(C#N)=C/c2ccc(Cl)cc2)c(=O)n(-c2ccccc2)n1C :
center range

Bin? C=CCOC(=O)[C@H]1[C@@H]2C(=O)O[C@@H](c3ccccc3)[C@@H](c3ccccc3)N2[C@@H](c2ccc(OCCOC(=O)[C@@H]3C[C@@H]4C(=O)N[C@@H](Cc5ccccc5)C(=O)N4[C@@H]3c3ccc(O)cc3)cc2)[C@]12C(=O)Nc1ccccc12
top range

Looking at CN1C=C(C(=O)OCCS(C)(=O)=O)C(C(=O)OCCS(C)(=O)=O)=CC(CCCO)=CC1c1ccc(CN2CCCC2)cc1 (stereo unspecified) , which class would you pick?
bottom range

Sort into band: CCCC=C(CCC)[C@@H](NC(=O)c1ccccc1)c1ccc(C(=O)OC)cc1
bottom range

For C[N+](C)(C)CCCC[C@@H]1NC(=O)[C@H]2C[C@@H](C(=O)NCCCCCNC(=O)CS)[C@@H](c3ccc(O)cc3)N2C1=O , which z-score bin applies?
bottom range

Field: class (z-score) — entry: C=CCN1C(=O)[C@]2(O[C@H](CCO)[C@@H]([Si](C)(C)c3ccc(OC)cc3)[C@@H]2C)c2ccccc21
top range

Which class does COc1ccc([Si](C)(C)[C@H]2[C@H](CC(=O)N3Cc4ccccc4C[C@H]3CO)O[C@@]3(C(=O)N(Cc4cccc(N5C(=O)c6cccc7cccc5c67)c4)c4ccccc43)[C@@H]2C)cc1 fall in?
top range

# classify by z-score band: C=C(C(=O)CC[C@@H](OC(C)=O)c1cccc(OCCO)c1)C(C)C
center range

In plain terms, what class is COCCOC(=O)N1C(=O)[C@@]2(c3cc(C#CCCO)ccc31)[C@H](C(=O)N1CCc3cc(OC)c(OC)cc3C1)[C@H]1C(=O)O[C@H](c3ccccc3)[C@H](c3ccccc3)N1[C@@H]2c1ccccc1OCCO ?
top range
